# experimental-details: Stability in rat liver microsomes
# Format: in vitro ADME
# experimental-conditions: pH 7.4, ∞ = no obvious metabolism found during assay, read-out: Stability test in liver microsomes t1/2, Rat
Measured half-life at 1 μM, listed per entry for reference.

compound	half-life at 1 μM
CC(C)(O)[C@H]1C[C@H](n2cc3cc(NC(=O)c4cccc(C(F)(F)F)n4)c(-n4cccn4)cc3n2)C1 [MY-004-144]	11.4 h
CN(C)c1cc2nn([C@H]3CC[C@H](O)CC3)cc2cc1NC(=O)c1cccc(C(F)(F)F)n1 [MY-004-153]	4.17 h
COc1cc2nn([C@H]3CC[C@H](O)CC3)cc2cc1NC(=O)c1cccc(C(F)(F)F)n1 [MY-004-127-1]	5.1 h
CN(C)c1cc2nn([C@H]3C[C@H](C(C)(C)O)C3)cc2cc1NC(=O)c1cccc(C(F)(F)F)n1 [MY-004-089]	4.87 h
COc1cc2nn([C@H]3CC[C@](C)(O)CC3)cc2cc1NC(=O)c1cccc(C(F)(F)F)n1 [MY-004-126-1]	6.63 h

###

The following molecules are shown together with reported half-life values.
# experimental-details: PK assay in rat (intravenous injection and oral gavage)
# Type: in vivo
# experimental-conditions: plasma, 2 mg/kg; male SD rat, oral administration, 2 mpk, 5% DMSO + 15% Solutol + 80% Saline; read-out: Half life t1/2 (converted)
# Experimental: The rats used for pharmacokinetic study in the example were male SPF-grade SD rats (B&K Universal, Shanghai). Route of administration: a single dose by oral gavage or intravenous injection Sampling points: 0.083 h, 0.25 h, 0.5 h, 1 h, 2 h, 4 h, 6 h, 8 h and 24 h after administration Sample processing: 0.2 mL of venous blood was collected, and let stand on ice before centrifugation to separate plasma (centrifugation conditions: 8000 rpm, 6 min, 4° C.). […]
measured-parameter: half-life (h)

smiles-string	val
COc1cc2nn([C@H]3C[C@H](CO)C3)cc2cc1NC(=O)c1cccc(C(F)(F)F)n1	1.09
CN(C)c1cc2nn([C@H]3C[C@H](C(C)(C)O)C3)cc2cc1NC(=O)c1cccc(C(F)(F)F)n1	8.11

###

# target-under-test: CYP1A2 (Homo sapiens, UniProt P05177)
# Construct: tissue Corning (USA); host or cells: mixed human liver microsomes
# Sequence (P05177 1-516): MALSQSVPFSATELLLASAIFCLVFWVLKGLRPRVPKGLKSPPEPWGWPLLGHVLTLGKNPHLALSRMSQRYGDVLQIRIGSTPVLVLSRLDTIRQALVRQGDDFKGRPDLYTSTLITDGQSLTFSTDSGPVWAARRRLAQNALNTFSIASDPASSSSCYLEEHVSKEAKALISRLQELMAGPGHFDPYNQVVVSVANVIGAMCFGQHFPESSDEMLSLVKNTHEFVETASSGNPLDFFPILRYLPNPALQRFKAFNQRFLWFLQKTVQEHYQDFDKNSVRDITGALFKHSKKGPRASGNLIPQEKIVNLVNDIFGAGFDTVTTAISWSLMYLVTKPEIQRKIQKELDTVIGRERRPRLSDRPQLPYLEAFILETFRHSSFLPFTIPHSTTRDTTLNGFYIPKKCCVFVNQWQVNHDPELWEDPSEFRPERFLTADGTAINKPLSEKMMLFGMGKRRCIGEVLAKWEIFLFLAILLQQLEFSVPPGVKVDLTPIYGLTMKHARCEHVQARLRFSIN
# experimental-details: CYP450 inhibition in human liver microsomes, CYP1A2
# Format: in vitro ADME

compound	IC50
CC(C)(O)CCn1cc2cc(NC(=O)c3cccc(C(F)(F)F)n3)c(C(C)(C)O)cc2n1 [MYA, reference compound]	2910 nM

###

Parameter: AUC(0-t). Scope: all listed entries.
# experimental-details: PK assay in rat (intravenous injection and oral gavage)
# Assay type: in vivo
# experimental-conditions: plasma, 5 mg/kg; male SD rat, oral administration, 5 mpk, 15% solutol HS15 + 85% PBS; read-out: Area under curve AUC0-t

compound	AUC(0-t)
COc1cc2nn([C@H]3CC[C@H](O)CC3)cc2cc1NC(=O)c1cccc(C(F)(F)F)n1 [MY-004-127-1]	18400 ng·h/mL
COc1cc2nn([C@H]3CC[C@](C)(O)CC3)cc2cc1NC(=O)c1cccc(C(F)(F)F)n1 [MY-004-126-1]	11500 ng·h/mL
COc1cc2nn([C@H]3CC[C@@](C)(O)CC3)cc2cc1NC(=O)c1cccc(C(F)(F)F)n1 [MY-004-126-2]	15400 ng·h/mL

###

IC50 for assorted molecules
# target-under-test: CYP2C19 (Homo sapiens)
# Construct: tissue Corning (USA); host or cells: mixed human liver microsomes
# Sequence (P33261 whole entry): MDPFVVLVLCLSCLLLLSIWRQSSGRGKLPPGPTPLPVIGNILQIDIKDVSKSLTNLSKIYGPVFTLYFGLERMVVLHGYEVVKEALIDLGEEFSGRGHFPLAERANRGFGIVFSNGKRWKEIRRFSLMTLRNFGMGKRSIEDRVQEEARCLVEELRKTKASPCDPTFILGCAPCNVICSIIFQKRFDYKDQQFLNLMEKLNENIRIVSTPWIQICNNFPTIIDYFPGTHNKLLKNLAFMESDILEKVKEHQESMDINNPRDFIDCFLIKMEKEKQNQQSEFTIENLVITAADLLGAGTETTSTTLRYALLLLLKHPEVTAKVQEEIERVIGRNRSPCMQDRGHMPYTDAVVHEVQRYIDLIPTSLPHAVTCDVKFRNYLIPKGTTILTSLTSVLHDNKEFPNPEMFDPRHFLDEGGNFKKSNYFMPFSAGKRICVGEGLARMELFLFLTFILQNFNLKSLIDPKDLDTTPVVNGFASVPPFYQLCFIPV
# experimental-details: CYP450 inhibition in human liver microsomes, CYP2C19
# Format: in vitro ADME
# experimental-conditions: human liver microsomes, probe mephenytoin; read-out: IC50, subtype 2C19

smiles-string	IC50
CC(C)(O)c1cc2nn([C@H]3CC[C@](C)(O)CC3)cc2cc1NC(=O)c1cccc(C(C)(F)F)n1	> 30 µM
COc1cc2nn([C@H]3CC[C@](C)(O)CC3)cc2cc1NC(=O)c1cccc(C(F)(F)F)n1	> 30 µM
COc1cc2nn([C@H]3CC[C@H](O)CC3)cc2cc1NC(=O)c1cccc(C(F)(F)F)n1	> 30 µM

###

# experimental-details: Stability in mouse liver microsomes
# Type: in vitro ADME
# experimental-conditions: pH 7.4, ∞ = no obvious metabolism found during assay, read-out: Stability test in liver microsomes t1/2, Mouse

compound	half-life at 1 μM [h]
COc1cc2nn([C@H]3CC[C@@](C)(O)CC3)cc2cc1NC(=O)c1cccc(C(F)(F)F)n1 [MY-004-126-2]	13.4
CN(C)c1cc2nn([C@H]3CC[C@H](O)CC3)cc2cc1NC(=O)c1cccc(C(F)(F)F)n1 [MY-004-153]	4.72
COc1cc2nn([C@H]3CC[C@](C)(O)CC3)cc2cc1NC(=O)c1cccc(C(F)(F)F)n1 [MY-004-126-1]	5.9

The reported numbers originate from patent US20220204473A1.
